Assay: probe aLefty1 binding on compound microarray – biochemical, small-molecule microarray, 635/667 nm fluorescence, primary screen (AID 1153);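 further: score merges spot fluorescence with signal-to-noise ratio from the scanned slide images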
Details: higher = more signal

Compound	composite z-score
CC(C)=C1C(=O)C(c2ccccc2)=C2CN3C(=O)N(CCc4ccccc4)C(=O)[C@]3(C)[C@H]21	0.298
COCCOC(=O)N1C(=O)[C@@]2(c3cc(C#CCCO)ccc31)[C@H](C(N)=O)[C@H]1C(=O)O[C@H](c3ccccc3)[C@H](c3ccccc3)N1[C@@H]2c1ccccc1OCCO	-0.147
NC(=O)N1C(=O)C2C(C1=O)C1C=C(CCCO)C2C(c2ccc(CN3CCCC3)cc2)N1Cc1cc2c(cc1Br)OCO2 (stereo unspecified)	-0.276
[N-]=[N+]=Nc1ccccc1C[C@@]1(C(=O)NCc2ccccc2)N=C(c2ccc(OCCCO)cc2)O[C@@H]1c1ccccc1N=[N+]=[N-]	0.399
CCOC(=O)C[C@H]1[C@H](OC(=O)c2ccccc2-c2ccccc2)[C@@H](NC(=O)c2ccc3ccccc3c2)c2cc(OCCCO)ccc2N1C(=O)Cc1ccc(OC)cc1	-0.241
Cc1ccccc1C(O)C1C=CC2C(=O)N(c3ccccc3)C(=O)C2N1Nc1ccccc1 (stereo unspecified)	0.271
COc1ccc([Si](C)(C)[C@H]2[C@H](CC(=O)N3Cc4ccccc4C[C@H]3CO)O[C@@]3(C(=O)N(c4ccccc4)c4ccccc43)[C@@H]2C)cc1	0.701
COc1ccc([Si](C)(C)[C@H]2[C@H](CCO)O[C@@]3(C(=O)N(Cc4cccc(N5C(=O)c6ccccc6Oc6ccccc65)c4)c4ccccc43)[C@@H]2C)cc1	0.119
N#Cc1ccc(-c2cccc(=O)o2)cc1	-0.0954
CN1C(=O)C2C(C3CC3)C=C3CN(Cc4cccc(Cl)c4)[C@@H]([C@@H](O)Cc4ccccc4)C3C2C1=O (stereo partly specified)	0.2
CC(=O)OCC1C2CC[C@H]3C(OCc4ccc(F)cc4C(F)(F)F)OC[C@]4(C)[C@H]3C2=C(CN4C(=O)OC(C)(C)C)[C@H](C)C1COC(C)=O (stereo partly specified)	0.498
